- system-name: T1, NHERF3_1, Q5T2W1
- T1 sequence (Q5T2W1 4-100, limits assumed, looked up): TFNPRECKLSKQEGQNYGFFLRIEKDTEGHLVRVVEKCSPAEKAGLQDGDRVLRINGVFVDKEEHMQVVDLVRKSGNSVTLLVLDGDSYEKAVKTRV
- assay-method-text: holdup assay
- Parameters: key: below the threshold = too weak to quantify, mostly under pKd 3.1 to 4
- assay-context: plain residues with an end cap or a label only (N-terminal biotin on a linker: ado-ado)
reported-property: pKd

> print(dat)
                        binder       endpoint.value
1  QSARLWETSI [ADAM22, Q9P0K1]                 4.88
2   VDSTVKVWTC [TRAF7, Q6Q0C0]  below the threshold
3  PDGQCTVTEV [RNF146, Q9NTX7]  below the threshold
4  LRSPRTPSEV [OR10G3, Q8NGC4]  below the threshold
5    GSGAVEMESV [AQP6, Q13520]  below the threshold
